# Test system: S. epidermidis ATCC14990
# protocol details: Test 1: Anti-Microbial Activities (MIC)
# Format: cell-based
# stated conditions: Staphylococcus epidermidis, Sensitivity Disk agar-N+5% Horse blood, inoculants 10^6 CFU/ml, read-out: minimum inhibiting concentrations (MIC)
Below, each entry is listed alongside its reported MIC.
Give the value, in units of µg/mL, as a plain number.

Cc1nc(S(C)(=O)=O)c2sc(C3=C(C(=O)[O-])N4C(=O)[C@H]([C@@H](C)O)[C@H]4[C@H]3C)cn12.[Na+] | 0.05

# context switch: different compound, same MIC
Look up and report measured MIC (S. epidermidis ATCC14990) for the following compound: CCC(=O)c1ncn2cc(C3=C(C(=O)[O-])N4C(=O)[C@H]([C@@H](C)O)[C@H]4C3)sc12.[Na+]
0.05

Every entry's value here was drawn from patent US6677331B2.
